Some molecules, each annotated with its measured IC50.
target: human rec ACSS2 (Homo sapiens (Human), UniProt Q9NR19); test: Biochemical activity ACSS2 assay (AMP-Glo); settings: human recombinant ACSS2, AMP-Glo, 180 min at 37° C.
Sequence (Q9NR19 whole entry): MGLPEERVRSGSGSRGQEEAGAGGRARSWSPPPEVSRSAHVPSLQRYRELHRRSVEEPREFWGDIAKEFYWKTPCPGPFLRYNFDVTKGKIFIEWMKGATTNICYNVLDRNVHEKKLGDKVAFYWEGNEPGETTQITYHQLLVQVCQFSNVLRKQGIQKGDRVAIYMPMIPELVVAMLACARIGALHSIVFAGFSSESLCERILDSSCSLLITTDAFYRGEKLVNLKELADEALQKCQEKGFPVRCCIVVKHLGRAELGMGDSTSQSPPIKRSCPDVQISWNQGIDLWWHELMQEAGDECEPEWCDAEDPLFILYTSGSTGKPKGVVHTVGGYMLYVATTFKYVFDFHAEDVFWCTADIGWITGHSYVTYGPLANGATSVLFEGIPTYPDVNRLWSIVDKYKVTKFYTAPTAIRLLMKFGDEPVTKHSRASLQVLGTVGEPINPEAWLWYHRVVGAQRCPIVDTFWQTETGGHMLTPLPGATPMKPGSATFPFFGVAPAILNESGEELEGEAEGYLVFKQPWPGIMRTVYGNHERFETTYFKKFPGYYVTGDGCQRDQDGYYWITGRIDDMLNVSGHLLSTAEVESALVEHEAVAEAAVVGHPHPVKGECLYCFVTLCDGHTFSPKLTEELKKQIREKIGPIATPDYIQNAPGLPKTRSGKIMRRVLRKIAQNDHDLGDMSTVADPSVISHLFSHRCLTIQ

Solved cases below.
>  <molecule>
CCc1c(C(O)(c2ccccc2)c2ccccc2)nc2cc(F)c(-c3nnn[nH]3)cn12 [Compound 3]

>  <target-or-test-system>
human rec ACSS2 (Homo sapiens (Human), UniProt Q9NR19)

>  <measured>
1 to 10 nM

$$$$
>  <molecule>
CCc1c(C(O)(c2ccccc2)c2ccccc2)nn2cc(Cl)c(-c3nnn[nH]3)cc12 [Compound 21]

>  <target-or-test-system>
human rec ACSS2 (Homo sapiens (Human), UniProt Q9NR19)

>  <measured>
1 to 10 nM

$$$$
>  <molecule>
CCn1c(C(O)(c2ccccc2F)c2ccccc2F)nc2nc(F)c(-c3nnn[nH]3)cc21 [Compound 46]

>  <target-or-test-system>
human rec ACSS2 (Homo sapiens (Human), UniProt Q9NR19)

>  <measured>
10 to 100 nM

$$$$
>  <molecule>
CCn1c(C(O)(c2ccsc2)c2ccsc2)nc2nc(OC)c(-c3nnn[nH]3)cc21 [Compound 29]

>  <target-or-test-system>
human rec ACSS2 (Homo sapiens (Human), UniProt Q9NR19)

>  <measured>
1 to 10 nM

$$$$
>  <molecule>
CCn1c(C(O)(c2ccccc2)c2ccccn2)nc2nc(OC)c(-c3nnn[nH]3)cc21 (single isomer, unassigned) [Compound 41]

>  <target-or-test-system>
human rec ACSS2 (Homo sapiens (Human), UniProt Q9NR19)

>  <measured>
10 to 100 nM

$$$$

Task item: Could you share which IC50 value was measured for CCn1c(C(O)(c2ccccc2)c2ccccc2C)nc2nc(OC)c(-c3nnn[nH]3)cc21 (racemic) [Compound 42] ?
Reply: 1 to 10 nM

Task item: Could you share which IC50 value was measured for CCn1c(C(O)(c2ccccc2)c2ccccc2)nc2nc(F)c(-c3nnn[nH]3)cc21 [Compound 45] ?
Reply: 10 to 100 nM

---

Some compounds, each annotated with its measured IC50.
biological target: human rec ACSS2 (Homo sapiens (Human)); assay: Biochemical activity ACSS2 assay (AMP-Glo); conditions: human recombinant ACSS2, AMP-Glo, 180 min at 37° C.

>  <compound>
CCn1c(C(O)(c2ccccc2)c2cnn(C)c2)nc2nc(OC)c(-c3nnn[nH]3)cc21 (racemic)

>  <recorded-endpoint>
IC50

>  <measured>
10 to 100 nM

$$$$

Task item: Could you share which IC50 value was measured for CCn1c(C(O)(c2ccccc2F)c2ccccc2F)nc2ncc(-c3nnn[nH]3)cc21 ?
Reply: 10 to 100 nM

Task item: Could you share which IC50 value was measured for CCc1c(C(O)(c2ccccc2)c2ccn(C)n2)nc2cc(OC)c(-c3nnn[nH]3)cn12 (single isomer, unassigned) [Compound 17] ?
Reply: 100 to 10000 nM

Task item: Could you share which IC50 value was measured for CCc1c(C(O)(c2ccccc2)c2ccccc2)nn2cc(OC)c(-c3nnn[nH]3)cc12 ?
Reply: 1 to 10 nM

Task item: Could you share which IC50 value was measured for Cc1nc2nc(C(O)(c3ccccc3)c3ccccc3)n(C)c2cc1-c1nnn[nH]1 ?
Reply: 1 to 10 nM

Task item: Could you share which IC50 value was measured for CCn1c(C(O)(c2ccccc2)c2cccs2)nc2nc(OC)c(-c3nnn[nH]3)cc21 (racemic) ?
Reply: 1 to 10 nM

---

molecular target: human rec ACSS2 (Homo sapiens (Human), UniProt Q9NR19); assay: Biochemical activity ACSS2 assay (AMP-Glo); conditions: human recombinant ACSS2, AMP-Glo, 180 min at 37° C.
recorded-endpoint: IC50

>  <compound>
CCn1c(C(O)(c2ccccc2)c2ccccc2)nc2ccc(C(=O)NC[C@@H](C)O)cc21 [Reference Compound, reference compound]

>  <target-or-test-system>
human rec ACSS2 (Homo sapiens (Human), UniProt Q9NR19)

>  <IC50>
100 to 10000 nM

$$$$
>  <compound>
CCn1c(C(O)(c2ccccc2F)c2ccccc2F)nc2nc(C)c(-c3nnn[nH]3)cc21

>  <target-or-test-system>
human rec ACSS2 (Homo sapiens (Human), UniProt Q9NR19)

>  <IC50>
1 to 10 nM

$$$$
>  <compound>
CCc1c(C(O)(c2ccccc2)c2ncccn2)nc2cc(OC)c(-c3nnn[nH]3)cn12 (single isomer, unassigned) [Compound 15]

>  <target-or-test-system>
human rec ACSS2 (Homo sapiens (Human), UniProt Q9NR19)

>  <IC50>
100 to 10000 nM

$$$$

Task item: Could you share which IC50 value was measured for Cc1nc2nc(C(O)(c3ccccc3F)c3ccccc3F)n(C)c2cc1-c1nnn[nH]1 ?
Reply: 0.01 to 1 nM

Task item: Could you share which IC50 value was measured for CCc1cc2nc(C(O)(c3ccccc3)c3ccccc3)c(CC)n2cc1-c1nnn[nH]1 ?
Reply: 1 to 10 nM

Task item: Could you share which IC50 value was measured for CCn1c(C(O)(c2ccccc2)c2ccc(OC(F)F)cc2)nc2nc(OC)c(-c3nnn[nH]3)cc21 (racemic) ?
Reply: 1 to 10 nM

Task item: Could you share which IC50 value was measured for CCn1c(C(O)(c2ccccc2F)c2ccccc2F)nc2nc(OC)c(-c3nnn[nH]3)cc21 ?
Reply: 0.01 to 1 nM

---

Target: human rec ACSS2 (Homo sapiens (Human), UniProt Q9NR19)
Assay: Biochemical activity ACSS2 assay (AMP-Glo)
Settings: human recombinant ACSS2, AMP-Glo, 180 min at 37° C.
Source text: Biochemical Activity ACSS2 Assay (IC50 ACSS2 Biochemical) The biochemical activity assay for ACSS2 is based on the detection of released AMP by AMP-Glo™ Assay kit (Promega, Madison). […] The ACSS2 activity correlates with the detected luminescence signal. […]
pIC50: −log10 of the molar value.
recorded-endpoint: pIC50

Solved cases below.
>  <compound>
CCc1c(C(O)(c2ccccc2F)c2ccccc2F)nn2cc(OC)c(-c3nnn[nH]3)cc12

>  <pIC50>
8.00 to 9.00

$$$$
>  <compound>
CCn1c(C(O)(c2ccccc2)c2ccc(OC(F)F)cc2F)nc2nc(OC)c(-c3nnn[nH]3)cc21 (racemic)

>  <pIC50>
8.00 to 9.00

$$$$
>  <compound>
[2H]c1c([2H])c([2H])c(C(O)(c2c([2H])c([2H])c([2H])c([2H])c2[2H])c2nc3nc(OC)c(-c4nnn[nH]4)cc3n2CC)c([2H])c1[2H]

>  <pIC50>
9.00 to 11.00

$$$$

Task item: Could you share which pIC50 value was measured for CCc1c(C(O)(c2ccccc2)c2ccccn2)nc2cc(Cl)c(-c3nnn[nH]3)cn12 (single isomer, unassigned) [Compound 7] ?
Reply: 7.00 to 8.00

Task item: Could you share which pIC50 value was measured for CCn1c(C(O)(c2ccccc2)c2cccnc2)nc2nc(OC)c(-c3nnn[nH]3)cc21 (racemic) ?
Reply: 7.00 to 8.00

Task item: Could you share which pIC50 value was measured for CCn1c(C(O)(c2ccccc2)c2ccccc2)nc2nc(OC)c(-c3nnn[nH]3)cc21 ?
Reply: 9.00 to 11.00

Task item: Could you share which pIC50 value was measured for CCn1c(C(O)(c2ccccc2)c2ccsc2)nc2nc(OC)c(-c3nnn[nH]3)cc21 (racemic) ?
Reply: 8.00 to 9.00

Task item: Could you share which pIC50 value was measured for CCn1c(C(O)(c2ccccc2)c2nccs2)nc2nc(OC)c(-c3nnn[nH]3)cc21 (racemic) [Compound 31] ?
Reply: 8.00 to 9.00

Task item: Could you share which pIC50 value was measured for CCn1c(C(O)(c2ccccc2)c2ccncc2)nc2nc(OC)c(-c3nnn[nH]3)cc21 (racemic) ?
Reply: 7.00 to 8.00

Task item: Could you share which pIC50 value was measured for CCc1c(C(O)(c2ccccc2)c2ccccc2)nn2cc(F)c(-c3nnn[nH]3)cc12 ?
Reply: 7.00 to 8.00

Task item: Could you share which pIC50 value was measured for CCn1c(C(O)(c2ccc(OC(F)F)cc2)c2ccccc2F)nc2nc(OC)c(-c3nnn[nH]3)cc21 (racemic) ?
Reply: 8.00 to 9.00

Task item: Could you share which pIC50 value was measured for CCn1c(C(O)(c2cccs2)c2cccs2)nc2nc(OC)c(-c3nnn[nH]3)cc21 ?
Reply: 8.00 to 9.00

Task item: Could you share which pIC50 value was measured for COc1nc2nc(C(O)(c3ccccc3)c3ccccc3)n(CCO)c2cc1-c1nnn[nH]1 ?
Reply: 8.00 to 9.00

Task item: Could you share which pIC50 value was measured for CCn1c(C(O)(c2ccccc2)c2nccs2)nc2nc(OC)c(-c3nnn[nH]3)cc21 (single isomer, unassigned) [Compound 32] ?
Reply: 9.00 to 11.00

---

target: ACSS2 (Homo sapiens (Human), UniProt Q9NR19); assay: Cellular assay of 14C acetate incorporation into fatty acids (IC50 ACSS2 cellular lipids); format: cell-based; conditions: HCT-15 cells
Sequence (Q9NR19 whole entry): as above
recorded-endpoint: IC50

Task item: Tell me reported IC50 for CCn1c(C(O)(c2ccccc2)c2ccccc2)nc2nc(OC)c(-c3nnn[nH]3)cc21 , tested with ACSS2 (Homo sapiens (Human), UniProt Q9NR19).
Reply: 0.01 to 1 nM

Task item: Tell me reported IC50 for CCn1c(C(O)(c2ccccc2F)c2ccccc2F)nc2nc(C)c(-c3nnn[nH]3)cc21 , tested with ACSS2 (Homo sapiens (Human), UniProt Q9NR19).
Reply: 10 to 100 nM

Task item: Tell me reported IC50 for COc1nc2nc(C(O)(c3ccccc3)c3ccccc3)n(CCO)c2cc1-c1nnn[nH]1 , tested with ACSS2 (Homo sapiens (Human), UniProt Q9NR19).
Reply: 10 to 100 nM

Task item: Tell me reported IC50 for CCc1c(C(O)(c2ccccc2)c2ccccc2)nc2cc(F)c(-c3nnn[nH]3)cn12 , tested with ACSS2 (Homo sapiens (Human), UniProt Q9NR19).
Reply: 10 to 100 nM

Task item: Tell me reported IC50 for CCn1c(C(O)(c2ccccc2)c2ccccc2)nc2ncc(-c3nnn[nH]3)cc21 , tested with ACSS2 (Homo sapiens (Human), UniProt Q9NR19).
Reply: 100 to 10000 nM

Task item: Tell me reported IC50 for CCn1c(C(O)(c2ccccc2)c2ccccc2)nc2ccc(C(=O)NC[C@@H](C)O)cc21 [Reference Compound, reference compound] , tested with ACSS2 (Homo sapiens (Human), UniProt Q9NR19).
Reply: 1 to 10 nM

Task item: Tell me reported IC50 for Cc1nc2nc(C(O)(c3ccccc3)c3ccccc3)n(C)c2cc1-c1nnn[nH]1 , tested with ACSS2 (Homo sapiens (Human), UniProt Q9NR19).
Reply: 10 to 100 nM

Task item: Tell me reported IC50 for CCc1c(C(O)(c2ccccc2F)c2ccccc2F)nn2cc(OC)c(-c3nnn[nH]3)cc12 , tested with ACSS2 (Homo sapiens (Human), UniProt Q9NR19).
Reply: 1 to 10 nM
